- Test system: P. falciparum multidrug-resistant strain Dd2
- assayRemarks: Dd2 growth inhibition, 3H-hypoxanthine assay
- Type: cell-based, Plasmodium falciparum
- measurementParameters: Plasmodium falciparum, DD2, read-out: IC50 against Dd2
measuredParameter: pIC50
Just the number, please; pIC50 means minus log10 of the concentration in mol/L.

# input What does the data say about its pIC50? Entry: CCN(CC)CCCC(C)Nc1ccnc2cc(Cl)ccc12 (stereo not shown) [chloroquine, reference compound]
# output 6.54

* * *

- Test system: Pf H
- assayRemarks: microbe, parasite or virus in culture
- measurementParameters: Plasmodium falciparum, read-out: IC50 against Pf H
measuredParameter: IC50
# output: numeric value plus its unit

# input What does the data say about its IC50? Entry: CCN(CC)CCCC(C)Nc1ccnc2cc(Cl)ccc12 (stereo not shown) [chloroquine, reference compound]
# output 217 nM

* * *

In this section, each of the compounds is paired with its reported melting point.

Below: 3 compounds and their reported melting point.
• CC1=C(Cc2cccc(Br)c2)C(=O)C2C=CC=CC2C1=O (centres unmarked) = 108 to 109 °C
• CC1=C(Cc2ccc(C(=O)NCCC#N)cc2)C(=O)C2C=CC=CC2C1=O (centres unmarked) = 131 to 132 °C
• O=C1C(Cc2ccc(Br)cc2)=C(C(F)F)C(=O)c2ccccc21 = 103 to 104 °C

# input What does the data say about its melting point? Entry: COc1ccccc1CC1=C(C)C(=O)C2C=CC=CC2C1=O (centres unmarked)
# output 117 to 118 °C

# input What does the data say about its melting point? Entry: CC1=C(Cc2ccc(C(C)C)cc2)C(=O)C2C=CC=CC2C1=O (centres unmarked)
# output 64 to 65 °C

# input What does the data say about its melting point? Entry: COc1ccc(CC2=C(C)C(=O)C3C=CC=CC3C2=O)cc1OC (centres unmarked)
# output 102 to 103 °C

# input What does the data say about its melting point? Entry: CC1=C(Cc2ccc(C(=O)O)cc2)C(=O)C2C=CC=CC2C1=O (centres unmarked)
# output 206 to 208 °C

# input What does the data say about its melting point? Entry: COc1ccc(CC2=C(C)C(=O)C3C=CC=CC3C2=O)cc1 (centres unmarked)
# output 112 to 113 °C

* * *

In this section, each of the molecules is paired with its reported IC50.
- targetUnderTest: human glutathione reductase (hGR) (Homo sapiens)
- Sequence (P00390 44-522): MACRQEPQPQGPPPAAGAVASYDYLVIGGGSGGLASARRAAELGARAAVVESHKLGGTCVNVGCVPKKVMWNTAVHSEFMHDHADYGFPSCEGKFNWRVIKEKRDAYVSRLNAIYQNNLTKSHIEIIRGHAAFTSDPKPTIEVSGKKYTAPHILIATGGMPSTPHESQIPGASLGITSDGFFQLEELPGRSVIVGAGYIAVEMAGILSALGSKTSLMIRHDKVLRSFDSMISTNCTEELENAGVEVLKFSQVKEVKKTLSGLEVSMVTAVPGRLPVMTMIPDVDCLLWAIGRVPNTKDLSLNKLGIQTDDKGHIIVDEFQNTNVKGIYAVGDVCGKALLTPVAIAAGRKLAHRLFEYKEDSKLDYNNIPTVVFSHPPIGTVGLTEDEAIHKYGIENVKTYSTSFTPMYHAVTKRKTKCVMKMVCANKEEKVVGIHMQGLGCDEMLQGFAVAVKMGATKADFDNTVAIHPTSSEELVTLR
- assayRemarks: Inhibition of human glutathione reductase under steady-state conditions
- Assay type: biochemical
- measurementParameters: pH 6.9, 25° C., 1 mM GSSG, 100 μM NADPH
Response body: numeric value in nM, unit text excluded.

• CC1=C(C(O)c2ccc(Br)cc2)C(=O)c2ccccc2C1=O (centres unmarked) [P_TM23] = 1300

// next entry
# input Notebook entry, human glutathione reductase (hGR) (Homo sapiens) assay: IC50 of CC1=C(Cc2ccc(C(F)(F)F)cc2)C(=O)c2ccccc2C1=O [P_TM29] = ?
# output 1600

# credit: patent US9090549B2
